- ASSAY SETUP: in methylcyclohexane, 340.05 K
MEASURED QUANTITY: solubility (mole fraction)
Give the value as a plain number.

[Q] Give the measured solubility (mole fraction) for CC(C)COc1ccccc1B(O)O
[A] 0.479

* * *

- ASSAY SETUP: in chloroform, 309.65 K
MEASURED QUANTITY: solubility (mole fraction)
Give the value as a plain number.

[Q] Give the measured solubility (mole fraction) for CC(C)COc1ccc(B(O)O)cc1
[A] 0.0415

* * *

- ASSAY SETUP: in dipropyl ether, 302.95 K
MEASURED QUANTITY: solubility (mole fraction)

[Q] Give the measured solubility (mole fraction) for CC(C)COc1cccc(B(O)O)c1
[A] 0.116

* * *

- ASSAY SETUP: in methylcyclohexane, 344.65 K
MEASURED QUANTITY: solubility (mole fraction)
Give the value as a plain number.

[Q] Give the measured solubility (mole fraction) for CC(C)COc1ccc(B(O)O)cc1
[A] 0.204

* * *

- ASSAY SETUP: in 3-pentanone, 303.65 K
MEASURED QUANTITY: solubility (mole fraction)
Give the value as a plain number.

[Q] Give the measured solubility (mole fraction) for CC(C)COc1cccc(B(O)O)c1
[A] 0.191

* * *

- ASSAY SETUP: in acetone, 304.75 K
MEASURED QUANTITY: solubility (mole fraction)
Give the value as a plain number.

[Q] Give the measured solubility (mole fraction) for CC(C)COc1ccc(B(O)O)cc1
[A] 0.149

* * *

- ASSAY SETUP: in acetone, 300.35 K
MEASURED QUANTITY: solubility (mole fraction)

[Q] Give the measured solubility (mole fraction) for CC(C)COc1ccccc1B(O)O
[A] 0.314

* * *

- ASSAY SETUP: in methylcyclohexane, 312.25 K
MEASURED QUANTITY: solubility (mole fraction)
Give the value as a plain number.

[Q] Give the measured solubility (mole fraction) for CC(C)COc1ccccc1B(O)O
[A] 0.0333

* * *

- ASSAY SETUP: in acetone, 327.35 K
MEASURED QUANTITY: solubility (mole fraction)
Give the value as a plain number.

[Q] Give the measured solubility (mole fraction) for CC(C)COc1ccccc1B(O)O
[A] 0.533

* * *

compounds and their reported solubility (mole fraction)
- ASSAY SETUP: in 3-pentanone, 325.55 K
Give the value as a plain number.

[Q] Give the measured solubility (mole fraction) for CC(C)COc1ccccc1B(O)O
[A] 0.526

Continue with the next compound.
[Q] Give the measured solubility (mole fraction) for CC(C)COc1ccc(B(O)O)cc1
[A] 0.265

* * *

- ASSAY SETUP: in dipropyl ether, 300.35 K
MEASURED QUANTITY: solubility (mole fraction)
Give the value as a plain number.

[Q] Give the measured solubility (mole fraction) for CC(C)COc1ccccc1B(O)O
[A] 0.185
